Measured On: D(2) dopamine receptor (Homo sapiens)
Protocol Details: Dopamine D2 receptor (DRD2) small molecule antagonists, cell-based qHTS assay (AID 1963595)
Experimental Parameters: HEK293-DRD2 cAMP HTRF antagonist mode; series mostly up to 92.4 µM
Records with an inconclusive call do not appear. The source made the active and inactive calls. Calls follow the shape of the dose curve; as a rule, active = well fitted inhibition curve with a large enough effect in the signal ratio in the repeat runs, with a control signal flat; inconclusive = weak or mixed curves, or effect the other way; inactive = flat fitted curve, though single readings scatter; the % refers to the signal ratio.
The reply should name one outcome from class 1 (active), class 0 (inactive)

Compound: CC(C)(C)c1ccc(C(=O)O)cc1
Measured On: D(2) dopamine receptor (Homo sapiens)
Label Value: class 0
--
Compound: CC(C(=O)O)c1ccc2c(c1)[nH]c1ccc(Cl)cc12 (configuration not stated)
Measured On: D(2) dopamine receptor (Homo sapiens)
Label Value: class 0
--
Compound: O=c1[nH]c2ccccc2n1CCCN1CCN(C(c2ccccc2)c2ccccc2)CC1
Measured On: D(2) dopamine receptor (Homo sapiens)
Label Value: class 1
--
Compound: CCCCCCC(C)OC(=O)COc1nc(F)c(Cl)c(N)c1Cl (configuration not stated)
Measured On: D(2) dopamine receptor (Homo sapiens)
Label Value: class 0
--
Compound: CN1CCN(C)CC1
Measured On: D(2) dopamine receptor (Homo sapiens)
Label Value: class 0

Q) Field: outcome | Entry: CSc1c(Cl)c(Cl)c(Cl)c(Cl)c1Cl
A) class 0

Q) Field: outcome | Entry: C=Cc1ccc(S(=O)(=O)O)cc1
A) class 0

Q) Field: outcome | Entry: CC1=Nc2ccc3ccccc3c2C1(C)C
A) class 0

Q) Field: outcome | Entry: O=C(Nc1ccccc1)c1cc(Cl)ccc1O
A) class 0

Q) Field: outcome | Entry: OC1CCCCC1c1ccccc1 (configuration not stated)
A) class 0

Q) Field: outcome | Entry: CCCCCCCCCOC(=O)CCCCC(=O)OCCCCCCC
A) class 0

Q) Field: outcome | Entry: O=C(c1ccccc1)c1ccccc1
A) class 0

Q) Field: outcome | Entry: Cc1nc2ccc(CN(C)c3ccc(C(=O)N[C@@H](CCC(=O)O)C(=O)O)s3)cc2c(=O)[nH]1
A) class 0

Q) Field: outcome | Entry: CC(C)c1ccccc1C(C)C
A) class 0

Q) Field: outcome | Entry: CC(=O)c1ccc2c(c1)[C@H](NC(=O)c1ccc(F)cc1)[C@@H](O)C(C)(C)O2
A) class 0

Q) Field: outcome | Entry: CCOc1ccc(NC(=O)CC(C)=O)cc1
A) class 0

Q) Field: outcome | Entry: CC(C)(C)CC(C)(C)N
A) class 0

Q) Field: outcome | Entry: CCCCN(CCCC)C(=S)SSC(=S)N(CCCC)CCCC
A) class 0

Q) Field: outcome | Entry: Cc1ccc(S(=O)(=O)C(I)I)cc1
A) class 1

Q) Field: outcome | Entry: COC(=O)/C=C/C(C)=C\C=C\C(C)=C\C=C\C=C(C)\C=C\C=C(C)\C=C\C(=O)O
A) class 0

Q) Field: outcome | Entry: SCCc1cnccn1
A) class 0

====

Measured On: 5-hydroxytryptamine receptor 2A (Homo sapiens) (UniProt P28223)
Sequence (P28223 whole entry, looked up): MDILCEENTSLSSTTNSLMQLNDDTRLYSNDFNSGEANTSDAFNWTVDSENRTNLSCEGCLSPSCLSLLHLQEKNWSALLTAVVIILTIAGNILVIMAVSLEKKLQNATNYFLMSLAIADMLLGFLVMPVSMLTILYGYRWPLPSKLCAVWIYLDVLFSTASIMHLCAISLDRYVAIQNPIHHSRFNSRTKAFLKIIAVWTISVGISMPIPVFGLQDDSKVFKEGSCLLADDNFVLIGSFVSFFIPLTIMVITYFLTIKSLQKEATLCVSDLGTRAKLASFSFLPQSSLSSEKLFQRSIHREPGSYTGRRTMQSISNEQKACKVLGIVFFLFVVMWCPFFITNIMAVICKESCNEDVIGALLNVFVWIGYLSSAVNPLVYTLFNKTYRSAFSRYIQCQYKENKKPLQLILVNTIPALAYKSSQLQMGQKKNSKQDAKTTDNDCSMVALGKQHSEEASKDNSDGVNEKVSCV
Protocol Details: 5-hydroxytryptamine receptor 2A (HTR2A) small molecule antagonists, cell-based qHTS assay (AID 1963586); also: nearly all actives have a fitted effect of over 45% in size
Experimental Parameters: HTR2A-CHO cells, DOI-induced calcium flux, fluorescence; series mostly up to 61.5 µM
Results filed as inconclusive are left out. Activity calls are given as the source filed them. Calls follow the shape of the full dose curve.
The reply should name one outcome from active, inactive

Consider the following illustrative entries.
Compound: C/C(C=O)=C\c1ccccc1
Label Value: inactive

Compound: O=C1c2ccccc2C(=O)N1CCc1noc(-c2ccc(CN3CCCCCC3)s2)n1
Label Value: inactive

Compound: Cc1ccc(N)cc1O
Label Value: inactive

Compound: CC(C)C[C@H](NC(=O)[C@H](Cc1ccccc1)NC(=O)c1cnccn1)B(O)O
Label Value: inactive

Q) Field: outcome | Entry: O=[N+]([O-])c1ccc(Nc2ccc(Nc3ccccc3)c(S(=O)(=O)O)c2)c([N+](=O)[O-])c1
A) inactive

Q) Field: outcome | Entry: Nc1cccc([N+](=O)[O-])c1
A) inactive

Q) Field: outcome | Entry: CCCCC(CC)C(=O)OCCOCCOCCOCCOC(=O)C(CC)CCCC (configuration not stated)
A) inactive

Q) Field: outcome | Entry: COC(=O)CSc1cc(N=c2sc(=O)n3n2CCCC3)c(F)cc1Cl
A) inactive

Q) Field: outcome | Entry: CN(C)CC/C=C1\c2ccccc2Sc2ccc(Cl)cc21
A) active

Q) Field: outcome | Entry: CCCCC[C@H](O)/C=C/[C@H]1[C@H](O)CC(=O)[C@@H]1C/C=C\CCCC(=O)O
A) inactive

Q) Field: outcome | Entry: OCCCCCO
A) inactive

Q) Field: outcome | Entry: C=CC(C)(C)CC(=O)OC
A) inactive

====

Measured On: D(2) dopamine receptor (Homo sapiens) (UniProt P14416)
Sequence (P14416 whole entry, looked up): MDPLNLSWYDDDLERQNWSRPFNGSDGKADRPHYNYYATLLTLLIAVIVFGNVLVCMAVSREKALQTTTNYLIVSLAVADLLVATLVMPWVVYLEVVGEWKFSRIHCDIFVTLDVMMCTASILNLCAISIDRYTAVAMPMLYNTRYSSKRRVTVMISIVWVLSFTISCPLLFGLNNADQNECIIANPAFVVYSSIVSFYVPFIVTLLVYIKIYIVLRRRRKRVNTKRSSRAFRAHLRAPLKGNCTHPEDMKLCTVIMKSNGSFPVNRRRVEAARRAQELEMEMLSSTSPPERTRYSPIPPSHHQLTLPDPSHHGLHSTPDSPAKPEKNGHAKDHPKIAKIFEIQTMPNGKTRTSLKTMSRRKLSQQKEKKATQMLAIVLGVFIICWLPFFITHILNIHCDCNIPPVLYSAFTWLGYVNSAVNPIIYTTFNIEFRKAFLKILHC
Protocol Details: Dopamine D2 receptor (DRD2) small molecule antagonists, cell-based qHTS assay (AID 1963595)
Experimental Parameters: HEK293-DRD2 cAMP HTRF antagonist mode; series mostly up to 92.4 µM
Records with an inconclusive call do not appear. Active and inactive are the calls of the source. Calls follow the shape of the dose curve; as a rule, active = well fitted inhibition curve with a large enough effect in the signal ratio in the repeat runs, with a control signal flat; inconclusive = weak or mixed curves, or effect the other way; inactive = flat fitted curve, though single readings scatter; the % refers to the signal ratio.
The reply should name one outcome from active, inactive

Compound: C1COCO1
Label Value: inactive
//
Compound: C[C@@H](Oc1ccc(CNC(=O)c2cccnc2Oc2ccc3c(c2)OCO3)c(F)c1)C(=O)O
Label Value: inactive
//
Compound: Clc1sc(Cl)c(Cl)c1Cl
Label Value: inactive

Q) Field: outcome | Entry: OCCCCCO
A) inactive

Q) Field: outcome | Entry: CCn1c(=O)c2c(nc(/C=C/c3ccc(OC)c(OC)c3)n2C)n(CC)c1=O
A) inactive

Q) Field: outcome | Entry: O=[N+]([O-])c1cc[n+]([O-])cc1
A) inactive

Q) Field: outcome | Entry: Cc1ccc(Cl)c(Nc2ccccc2C(=O)O)c1Cl
A) inactive

Q) Field: outcome | Entry: C[C@H](CCC(=O)O)[C@H]1CC[C@H]2[C@@H]3CC[C@@H]4C[C@H](O)CC[C@]4(C)[C@H]3CC[C@]12C
A) inactive

Q) Field: outcome | Entry: CC1=C(C(=O)O)N2C(=O)[C@@H](NC(=O)[C@H](N)c3ccc(O)cc3)[C@H]2SC1
A) inactive

Q) Field: outcome | Entry: O=c1[nH]c(=O)n([C@H]2C[C@H](O)[C@@H](CO)O2)cc1C(F)(F)F
A) inactive

Q) Field: outcome | Entry: CCCCCCCCCCOC(=O)c1ccccc1C(=O)OCCCCCCCC
A) inactive

Q) Field: outcome | Entry: Cc1c(Cl)cccc1Cl
A) inactive

Q) Field: outcome | Entry: c1ccc(-c2nc3ccccc3[nH]2)cc1
A) inactive

Q) Field: outcome | Entry: CCCC(CC)c1ccccc1 (stereo not given)
A) inactive

Q) Field: outcome | Entry: c1ccc(C(O[C@@H]2CCCN(CCc3ccc4c(c3)OCO4)C2)c2ccccc2)cc1
A) inactive

Q) Field: outcome | Entry: C=C(C)C(=O)OCCOc1ccccc1
A) inactive

Q) Field: outcome | Entry: CCCCCCCCCCCCCC[P+](CCCC)(CCCC)CCCC (tested in a mixture with another compound)
A) active

Q) Field: outcome | Entry: CCCCN(CCCC)c1ccc(C(=O)c2ccccc2C(=O)O)c(O)c1
A) inactive

====

Measured On: Beta-2 adrenergic receptor (Homo sapiens) (UniProt P07550)
Sequence (P07550 whole entry, looked up): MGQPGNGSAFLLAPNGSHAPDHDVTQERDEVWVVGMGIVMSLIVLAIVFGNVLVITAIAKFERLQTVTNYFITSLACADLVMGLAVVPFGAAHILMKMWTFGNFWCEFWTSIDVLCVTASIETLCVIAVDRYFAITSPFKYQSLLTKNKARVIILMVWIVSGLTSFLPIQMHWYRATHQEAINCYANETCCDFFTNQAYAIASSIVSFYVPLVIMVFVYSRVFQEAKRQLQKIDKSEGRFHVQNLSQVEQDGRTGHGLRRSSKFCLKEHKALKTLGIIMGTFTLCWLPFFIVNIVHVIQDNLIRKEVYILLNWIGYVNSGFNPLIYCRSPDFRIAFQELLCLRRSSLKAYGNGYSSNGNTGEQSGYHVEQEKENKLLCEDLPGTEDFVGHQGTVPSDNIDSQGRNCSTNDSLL
Protocol Details: Adrenergic beta2 receptor (ADRB2) small molecule antagonists, cell-based qHTS assay (AID 1963592); also: % is scaled to controls: 0 for no effect and ±100 for the full control effect; nearly all actives have a fitted effect of over 50% in size
Experimental Parameters: CHO-ADRB2 cells, isoproterenol-stimulated cAMP HTRF ratio, 0.5 h; series mostly up to 92.4 µM
Results filed as inconclusive are left out. The source made the active and inactive calls. Calls follow the shape of the full dose curve.
The reply should name one outcome from Y (active), N (inactive)

Consider the following illustrative entries.
Compound: CCN(CC)c1cccc(O)c1
Label Value: N
//
Compound: O=C(O)C1(C(=O)Nc2ccc(Cl)cc2Cl)CC1
Label Value: N
//
Compound: CC(=O)c1ccccc1[N+](=O)[O-]
Label Value: N
//
Compound: Cc1c(-c2cccnc2)c2ccccc2n1CCCCC(=O)O
Label Value: N

Q) Field: outcome | Entry: CC(Cc1ccccc1)(NC(=O)CN)c1ccccc1 (configuration not stated)
A) N

====

Measured On: D(2) dopamine receptor (Homo sapiens) (UniProt P14416)
Protocol Details: Dopamine D2 receptor (DRD2) small molecule antagonists, cell-based qHTS assay (AID 1963595)
Experimental Parameters: HEK293-DRD2 cAMP HTRF antagonist mode; series mostly up to 92.4 µM
Inconclusive results are not listed. The source made the active and inactive calls. The call rests on the fitted dose curve; in most records, active means well fitted inhibition curve with a large enough effect in the signal ratio in the repeat runs, with a control signal flat; inconclusive means weak or mixed curves, or effect the other way; inactive means flat fitted curve, though single readings scatter; the % refers to the signal ratio.
The reply should name one outcome from T = active, F = inactive

Consider the following illustrative entries.
Compound: CCCCC(CC)CN=C(N)NC(N)=NCCCCCCN=C(N)NC(N)=NCC(CC)CCCC (stereo not drawn)
Label Value: T

Compound: CCCCCCNC(=O)n1cc(F)c(=O)[nH]c1=O
Label Value: F

Q) Field: outcome | Entry: COC(=O)CC(C)CCC=C(C)C (stereo not drawn)
A) F

Q) Field: outcome | Entry: NCc1cccc(C2CCN(C(=O)c3ccc(C#Cc4ccccc4F)o3)CC2)c1
A) T

Q) Field: outcome | Entry: CC(=O)OCC(=O)[C@H]1CC[C@H]2[C@@H]3CCC4=CC(=O)CC[C@]4(C)[C@H]3CC[C@]12C
A) F

Q) Field: outcome | Entry: COc1ccc(CCN(C)CCCN2CCc3cc(OC)c(OC)cc3CC2=O)cc1OC
A) F

Q) Field: outcome | Entry: CCOc1ccc(OCC)c(Cl)c1
A) F

Q) Field: outcome | Entry: NC(=O)N(O)[C@@H]1COc2cc(OCc3ccccc3)ccc21
A) F

Q) Field: outcome | Entry: O=C(NS(=O)(=O)/C=C/c1cccs1)c1ccc(F)cc1Br
A) F

Q) Field: outcome | Entry: CCC(=O)C1CC(C(C)C)CC=C1C (stereo not drawn)
A) F

Q) Field: outcome | Entry: CCc1ccc(C)cc1
A) F

Q) Field: outcome | Entry: CC(CC=O)CCCC(C)(C)O (stereo not drawn)
A) F

Q) Field: outcome | Entry: CCN[C@H]1C[C@H](C)S(=O)(=O)c2sc(S(N)(=O)=O)cc21
A) F

Q) Field: outcome | Entry: [Cl][Au]([Cl])[Cl]
A) F

Data origin, for the record: PubChem BioAssay (Tox21)
